Hi there, I'd appreciate the recorded cAMP EC50 for every entry that follows.
# assayedSystem: T1, human GIP receptor (human) (UniProt P48546)
# T1 sequence (looked up): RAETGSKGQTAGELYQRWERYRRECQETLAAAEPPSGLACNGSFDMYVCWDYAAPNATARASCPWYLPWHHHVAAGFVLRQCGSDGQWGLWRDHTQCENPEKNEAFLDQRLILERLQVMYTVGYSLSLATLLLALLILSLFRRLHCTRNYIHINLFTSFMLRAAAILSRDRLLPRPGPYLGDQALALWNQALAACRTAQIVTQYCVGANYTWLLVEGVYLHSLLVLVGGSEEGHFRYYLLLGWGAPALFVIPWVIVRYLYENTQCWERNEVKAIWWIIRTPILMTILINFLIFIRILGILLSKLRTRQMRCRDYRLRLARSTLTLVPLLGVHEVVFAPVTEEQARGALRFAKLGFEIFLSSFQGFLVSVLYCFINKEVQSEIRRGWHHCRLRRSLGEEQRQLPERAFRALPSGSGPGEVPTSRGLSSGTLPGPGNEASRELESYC
# measurementNotes: cell-based or functional assay
*1 amine or outer side, *2 acyl side, *3 side chain or, on linkers, in order; H or OH if unused. Where no end group is shown, it is not given here. Side-chain parts run from the residue outwards. [ ]: non-standard residue; d: D form. The star is where a group is joined. Decanoyl(10-(4-HOOC-PhO)) = O=C(O)c1ccc(OCCCCCCCCCC(=O)*)cc1; αMePhe(2-F) = C[C@](N)(Cc1ccccc1F)C(=O)O; γGlu = O=C(O)[C@H](CCC(=O)[*:2])N[*:1]; αMeY = C[C@](N)(Cc1ccc(O)cc1)C(=O)O; αMeL = CC(C)C[C@](C)(N)C(=O)O; Orn = NCCC[C@H](N)C(=O)O; AEEA = NCCOCCOCC(=O)O; Aib = CC(C)(N)C(=O)O
Numbers only, in nM.

Example binders with recorded cAMP EC50:
| binder | cAMP EC50 [nM] |
| --- | --- |
| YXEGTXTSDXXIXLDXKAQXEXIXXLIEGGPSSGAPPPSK (not fully specified; Y-Aib-EGT-αMeF(2F)-TSD-4Pal-Aib-I-αMeL-LD-Orn-K((2-[2-(2-Amino-ethoxy)-ethoxy]-acetyl)2-(γ Glu)-CO-(CH2)10C3)AQ-Aib-E-αMeF-I-(D-Glu)-αMeY-LIEGGPSSGAPPPSK((2-[2-(2-Amino-ethoxy)-ethoxy]-acetyl)2-(γ-Glu)-CO-(CH2)10-CH3)-NH2) [Example 431] | 0.0097 |
| Y[Aib]EGT[αMePhe(2-F)]TSDV[Aib]I[αMeL]LD[Orn]IAQ[Aib]K([AEEA-AEEA-γGlu-Decanoyl(10-(4-HOOC-PhO))])FI[dE][αMeY]LIEGGPSSGAPPPSK([AEEA-AEEA-γGlu-Decanoyl(10-(4-HOOC-PhO))])-NH2 [Example 383] | 0.0147 |
| Y[Aib]EGT[αMePhe(2-F)]TSDV[Aib]I[αMeL]LD[Orn]IAQ[Aib]K([AEEA-AEEA-γGlu-Decanoyl(10-(4-HOOC-PhO))])FI[dE][αMeY]LIK([AEEA-AEEA-γGlu-Decanoyl(10-(4-HOOC-PhO))])GGPSSGAPPPS-NH2 [Example 330] | 0.0185 |

Below: the item to evaluate.
I have this binder here, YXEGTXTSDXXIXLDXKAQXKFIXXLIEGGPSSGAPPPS (Y-Aib-EGT-αMeF(2F)-TSD-4Pal-Aib-I-αMeL-LD-Orn-K((2-[2-(2-Amino-ethoxy)-ethoxy]-acetyl)3-(γ-Glu)-CO-(CH2)10-CH3)AQ-Aib-K((2-[2-(2-Amino-ethoxy)-ethoxy]-acetyl)3-(γ-Glu)-CO-(CH2)10-CH3)FI-(D-Glu)-αMeY-LIEGGPSSGAPPPS-NH2) [Example 422] , and I need its recorded cAMP EC50.
0.00655
